The origin of these recorded values is patent US10689367B2.

Target: human APJ receptor (Homo sapiens (Human), UniProt P35414)
Sequence (P35414 whole entry): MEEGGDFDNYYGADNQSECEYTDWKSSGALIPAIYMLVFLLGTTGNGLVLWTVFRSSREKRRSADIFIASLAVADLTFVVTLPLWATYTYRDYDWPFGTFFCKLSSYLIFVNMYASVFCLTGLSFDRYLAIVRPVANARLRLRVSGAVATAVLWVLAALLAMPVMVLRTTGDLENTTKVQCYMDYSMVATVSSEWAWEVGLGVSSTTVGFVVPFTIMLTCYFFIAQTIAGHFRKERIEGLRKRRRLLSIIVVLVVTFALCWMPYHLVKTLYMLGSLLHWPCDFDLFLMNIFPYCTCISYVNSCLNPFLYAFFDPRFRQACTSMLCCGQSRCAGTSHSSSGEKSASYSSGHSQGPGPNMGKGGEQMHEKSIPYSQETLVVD
Assay: [35S]GTPγS binding assay on membranes from CHO cells stably expressing human APJ receptor
Conditions: membranes of CHO cells stably expressing human APJ receptor, read-out: Activity hAPJ SPA EC50 IP
Measure: pEC50
Keep it numeric: pEC50 is minus log10 of the concentration in mol/L.

Observe how each entry below is paired with its result.
COc1cccc(-c2nnc(NS(=O)(=O)[C@@H](C)[C@H](C)c3ncc(Cl)cn3)n2[C@@H](C)c2c(C)noc2C)n1 (racemic) [Example 314.0] :: 7.48
COCCn1c(NS(=O)(=O)[C@@H](C)[C@H](C)c2ncc(OC)cn2)nnc1-c1cccc(OC)n1 :: 6.96
COc1cccc(-c2nnc(NS(=O)(=O)[C@@H](C)[C@H](OC)c3ncc(Cl)cn3)n2[C@@H]2[C@@H](OC)CCC[C@H]2OC)n1 :: 8.14
COc1cccc(-c2nnc(NS(=O)(=O)[C@@H](C)[C@H](OC)c3ncc(Cl)cn3)n2[C@H](C)c2cncs2)n1 (single isomer, unassigned) [Example 347.0] :: 9.32
CO[C@H](c1ncc(Cl)cn1)[C@H](C)S(=O)(=O)Nc1nnc(-c2ccccn2)n1C1(C)CC1 :: 7.96

Next molecule, pEC50 to be filled in.
Q) GET pEC50 where system = human APJ receptor (Homo sapiens (Human), UniProt P35414) and item = COC[C@H](C)n1c(NS(=O)(=O)[C@@H](C)[C@H](OC)c2ncc(Cl)cn2)nnc1-c1cccc(OC)n1
A) 8.89
